Molecular target: UniProt Q8K0H1
Sequence (Q8K0H1 whole entry): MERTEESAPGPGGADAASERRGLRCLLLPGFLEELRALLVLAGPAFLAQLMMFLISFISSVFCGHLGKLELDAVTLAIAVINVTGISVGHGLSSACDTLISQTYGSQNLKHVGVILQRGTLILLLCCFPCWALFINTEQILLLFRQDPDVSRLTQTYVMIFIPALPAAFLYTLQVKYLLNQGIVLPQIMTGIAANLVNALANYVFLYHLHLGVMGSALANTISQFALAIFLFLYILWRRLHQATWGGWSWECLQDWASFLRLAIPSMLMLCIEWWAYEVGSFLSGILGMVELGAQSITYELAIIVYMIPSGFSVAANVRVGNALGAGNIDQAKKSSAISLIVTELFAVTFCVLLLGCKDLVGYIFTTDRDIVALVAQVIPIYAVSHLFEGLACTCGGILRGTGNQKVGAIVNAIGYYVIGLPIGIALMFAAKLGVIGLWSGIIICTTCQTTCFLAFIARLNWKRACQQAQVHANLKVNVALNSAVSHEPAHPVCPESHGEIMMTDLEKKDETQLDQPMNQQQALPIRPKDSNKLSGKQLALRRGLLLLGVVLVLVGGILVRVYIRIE
Experiment: cell-based
Endpoint Label: pIC50
Interpret pIC50 as the negative base-10 log of the concentration measured in mol/L.

Task: Fill in: pIC50 of C=CC(=O)N1CCC[C@@H](n2nc(-c3ccc(Oc4ccccc4)cc3)c3c(N)ncnc32)C1 is ___
Result: 4.29

###

Target: MATE1 (Homo sapiens, UniProt Q96FL8)
Sequence (Q96FL8 whole entry): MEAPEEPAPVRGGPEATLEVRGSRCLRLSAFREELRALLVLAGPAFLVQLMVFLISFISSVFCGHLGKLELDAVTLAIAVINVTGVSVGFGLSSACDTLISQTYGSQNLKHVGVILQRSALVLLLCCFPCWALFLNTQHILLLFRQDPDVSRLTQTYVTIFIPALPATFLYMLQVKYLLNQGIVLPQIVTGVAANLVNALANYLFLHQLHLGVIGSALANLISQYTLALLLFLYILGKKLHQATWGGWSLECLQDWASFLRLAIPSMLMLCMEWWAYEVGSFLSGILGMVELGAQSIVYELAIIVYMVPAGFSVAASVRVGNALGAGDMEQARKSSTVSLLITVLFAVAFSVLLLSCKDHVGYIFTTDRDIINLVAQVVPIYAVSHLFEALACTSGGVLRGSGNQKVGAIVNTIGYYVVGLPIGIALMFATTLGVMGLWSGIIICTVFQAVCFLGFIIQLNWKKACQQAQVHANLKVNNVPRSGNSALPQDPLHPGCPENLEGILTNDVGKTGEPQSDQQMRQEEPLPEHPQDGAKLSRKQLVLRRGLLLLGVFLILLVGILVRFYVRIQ
Experiment: [14C]TEA uptake in HEK293 cells overexpressing human MATE1
Details: human, HEK293 cells overexpressing human MATE1, pH 7.4, probe [14C]TEA (tetraethylammonium), 2 µM
Give inhibition at 10 µM for every item shown.
// units = %; emit number, no label

Task: Which measured inhibition at 10 µM belongs to CC#CC(=O)N1CCC[C@H]1c1nc(-c2ccc(C(=O)Nc3ccccn3)cc2)c2c(N)nccn12 , tested on MATE1 (Homo sapiens, UniProt Q96FL8)?
Result: 43.3

Task: Next up: C=CC(=O)N1CCC([C@@H]2CCNc3c(C(N)=O)c(-c4ccc(Oc5ccccc5)cc4)nn32)CC1
Result: 94.5

Task: Next up: Cc1cn(-c2cc(NC(=O)c3ccc(C)c(Nc4nccc(-c5cnccn5)n4)c3)cc(C(F)(F)F)c2)cn1
Result: 73

Task: Next up: Cc1cnc(Nc2ccc(OCCN3CCCC3)cc2)nc1Nc1cccc(S(=O)(=O)NC(C)(C)C)c1
Result: 98.6

Task: Next up: CO[C@@H]1[C@H](N(C)C(=O)c2ccccc2)C[C@H]2O[C@]1(C)n1c3ccccc3c3c4c(c5c6ccccc6n2c5c31)C(=O)NC4
Result: 50

Task: Next up: COc1cc2nccc(Oc3ccc(NC(=O)Nc4cc(C)on4)c(Cl)c3)c2cc1OC
Result: 90.3

Task: Next up: CNC(=O)c1cc(Oc2ccc(NC(=O)Nc3ccc(Cl)c(C(F)(F)F)c3)cc2)ccn1
Result: 83.8

Task: Next up: CN(C)C/C=C/C(=O)Nc1cc2c(Nc3ccc(F)c(Cl)c3)ncnc2cc1O[C@H]1CCOC1
Result: 89.6

Task: Next up: Cn1cnc2c(F)c(Nc3ccc(Br)cc3F)c(C(=O)NOCCO)cc21
Result: 47.6

Task: Next up: COc1cc(Nc2ncc(F)c(Nc3ccc4c(n3)N(COP(=O)(O)O)C(=O)C(C)(C)O4)n2)cc(OC)c1OC
Result: 40.2

Task: Next up: COC(=O)N[C@@H](C)CNc1nccc(-c2cn(C(C)C)nc2-c2cc(Cl)cc(NS(C)(=O)=O)c2F)n1
Result: 66.1

Task: Next up: CN1CCN(c2ccc(C(=O)Nc3n[nH]c4ccc(Cc5cc(F)cc(F)c5)cc34)c(NC3CCOCC3)c2)CC1
Result: 99.6

Task: Next up: O=C(Nc1cnn2ccc(N3CCC[C@@H]3c3cc(F)ccc3F)nc12)N1CC[C@H](O)C1
Result: 21.1

Task: Next up: O=C(c1ccc(F)c(F)c1Nc1ccc(I)cc1F)N1CC(O)([C@@H]2CCCCN2)C1
Result: 83.3

Task: Next up: CNC(=O)c1ccccc1Sc1ccc2c(/C=C/c3ccccn3)n[nH]c2c1
Result: 60.8

###

Molecular target: UniProtKB Q96FL8
Assay: [14C]TEA uptake in HEK293 cells overexpressing human MATE1
Details: human, pH 7.4
Give inhibition at 10 µM for every item shown.
// units = %; emit number, no label

Task: Fill in: inhibition at 10 µM of COc1cc(N2CCC(N3CCN(C)CC3)CC2)ccc1Nc1ncc(Cl)c(Nc2ccccc2P(C)(C)=O)n1 is ___
Result: 95.9

Task: Next up: Cc1ccc(C(=O)Nc2ccc(CN3CCN(C)CC3)c(C(F)(F)F)c2)cc1C#Cc1cnc2cccnn12
Result: 84.9

Task: Next up: C[C@@H](Oc1cc(-c2cnn(C3CCNCC3)c2)cnc1N)c1c(Cl)ccc(F)c1Cl
Result: 96.8

Task: Next up: CS(=O)(=O)CCNCc1ccc(-c2ccc3ncnc(Nc4ccc(OCc5cccc(F)c5)c(Cl)c4)c3c2)o1
Result: 38.7

Task: Next up: C#Cc1cccc(Nc2ncnc3cc(OCCOC)c(OCCOC)cc23)c1
Result: 87

Task: Next up: C=CC(=O)N1CCC[C@@H](n2nc(-c3ccc(Oc4ccccc4)cc3)c3c(N)ncnc32)C1
Result: 91.8

Task: Next up: CCN(CC)CCNC(=O)c1c(C)[nH]c(/C=C2\C(=O)Nc3ccc(F)cc32)c1C
Result: 98
